# TARGET_DESC: Glutamate NMDA receptor; Grin1/Grin2c (Rattus norvegicus, UniProt P35439+Q00961)
# ASSAY_COMMENT: Positive allosteric modulation of recombinant rat GluN1/GluN2C receptor expressed in xenopus laevis oocyte assessed as potentiation of glutamate and glycine-induced current response at holding potential -40mV by two electrode voltage clamp method
READOUT: EC50 (nM)
One number for each entry, in nM.

The examples below pair each entry with its known result.
COMPOUND	TARGET_DESC	NUMBER
COc1cccc(OCC2c3ccc(OC(C)C)cc3CCN2C(=O)c2cccc(Cl)c2)c1 (configuration not stated)	Glutamate NMDA receptor; Grin1/Grin2c (Rattus norvegicus, UniProt P35439+Q00961)	6200
CCOc1ccc(OCC2c3ccc(OC(C)C)cc3CCN2C(=S)c2cccc(C(F)(F)F)c2)cc1 (configuration not stated)	Glutamate NMDA receptor; Grin1/Grin2c (Rattus norvegicus, UniProt P35439+Q00961)	350
CCOc1ccc(OC[C@@H]2c3ccc(OC(C)C)cc3CCN2C(=S)c2cccc(F)c2)cc1	Glutamate NMDA receptor; Grin1/Grin2c (Rattus norvegicus, UniProt P35439+Q00961)	380
CCOc1ccc(OCC2c3ccc(OC(C)C)cc3CCN2C(=O)c2cccc(C(F)(F)F)c2)cc1 (configuration not stated)	Glutamate NMDA receptor; Grin1/Grin2c (Rattus norvegicus, UniProt P35439+Q00961)	1300
COc1ccc(OCC2c3ccc(OC(C)C)cc3CCN2C(=O)c2cccc(I)c2)cc1 (configuration not stated)	Glutamate NMDA receptor; Grin1/Grin2c (Rattus norvegicus, UniProt P35439+Q00961)	690

Hi, could you look up EC50 for each item in my list?
1. CC(C)Oc1ccc(OCC2c3ccc(OC(C)C)cc3CCN2C(=O)c2cccc(F)c2)cc1 (configuration not stated)
2. CCOc1ccc(OCC2c3ccc(OC(C)C)cc3CCN2C(=S)c2cccc(Br)c2)cc1 (configuration not stated)
3. COc1ccc(OCC2c3ccc(OC(C)C)cc3CCN2C(=O)c2cccc(Br)c2)cc1 (configuration not stated)

1. 2700
2. 940
3. 1800

Hi, could you look up EC50 for each item in my list?
1. CC(C)Oc1ccc(OCC2c3ccc(OC(C)C)cc3CCN2C(=S)c2cccc(F)c2)cc1 (configuration not stated)
2. COc1ccc(OCC2c3ccc(OC(C)C)cc3CCN2C(=O)c2ccc(Cl)cc2)cc1 (configuration not stated)
3. CCOc1ccc(OCC2c3ccc(OC(C)C)cc3CCN2C(=S)c2cccc(F)c2)cc1 (configuration not stated)
4. CCOc1ccc(OCC2c3ccc(OCC(C)C)cc3CCN2C(=O)c2cccc(F)c2)cc1 (configuration not stated)
5. COc1ccc(OCC2c3ccc(N4CCOCC4)cc3CCN2C(=O)c2cccc(Br)c2)cc1 (configuration not stated)

1. 700
2. 9500
3. 1400
4. 3100
5. 3000

Hi, could you look up EC50 for each item in my list?
1. CCOc1ccc(OCC2c3ccc(OC(C)C)cc3CCN2C(=O)c2ccc(F)c(F)c2)cc1 (configuration not stated)
2. CCOc1ccc(OCC2c3ccc(OC4CCCC4)cc3CCN2C(=O)c2cccc(Cl)c2)cc1 (configuration not stated)
3. COc1ccc(OCC2c3ccc(N(C)C(C)C)cc3CCN2C(=O)c2cccc(Cl)c2)cc1 (configuration not stated)
4. COc1ccc(OCC2c3ccc(NC(C)C)cc3CCN2C(=O)c2cccc(Cl)c2)cc1 (configuration not stated)

[1800, 4200, 2000, 4700]

Hi, could you look up EC50 for each item in my list?
1. COc1ccc(OCC2c3ccc(OC(C)C)cc3CCN2C(=O)c2cccc([N+](=O)[O-])c2)cc1 (configuration not stated)
2. CCOc1ccc(OCC2c3ccc(OCC(C)C)cc3CCN2C(=O)c2cccc(Cl)c2)cc1 (configuration not stated)
3. CC(C)Oc1ccc(OCC2c3ccc(OC(C)C)cc3CCN2C(=O)c2cccc(C(F)(F)F)c2)cc1 (configuration not stated)
4. COc1ccc(OCC2c3ccc(N(C)C)cc3CCN2C(=O)c2cccc(Cl)c2)cc1 (configuration not stated)
5. COc1ccc(OCC2c3ccc(N4CCOCC4)cc3CCN2C(=O)c2cccc(Cl)c2)cc1 (configuration not stated)
6. COc1ccc(OC[C@H]2c3ccc(OC(C)C)cc3CCN2C(=S)c2cccc(Cl)c2)cc1
7. CC(C)Oc1ccc(OCC2c3ccc(OC(C)C)cc3CCN2C(=O)c2cccc(Cl)c2)cc1 (configuration not stated)
8. COc1ccc(OC[C@@H]2c3ccc(OC(C)C)cc3CCN2C(=S)c2cccc(Cl)c2)cc1

1: 2800; 2: 1000; 3: 920; 4: 4000; 5: 4700; 6: 1700; 7: 1700; 8: 480

Hi, could you look up EC50 for each item in my list?
1. CCOc1ccc(OCC2c3ccc(OC4CCCC4)cc3CCN2C(=O)c2cccc(F)c2)cc1 (configuration not stated)
2. CCOc1ccc(OCC2c3ccc(OC(C)C)cc3CCN2C(=S)c2cccc(Cl)c2)cc1 (configuration not stated)

4500
5000

====

# TARGET_DESC: Glutamate NMDA receptor; Grin1/Grin2b (Rattus norvegicus) (UniProt P35439+Q00960)
# ASSAY_COMMENT: Positive allosteric modulation of recombinant rat GluN1/GluN2B receptor expressed in xenopus laevis oocyte assessed as potentiation of glutamate and glycine-induced current response at 30 uM at holding potential -40mV by two electrode voltage clamp method relative to control
For each record, write down the corresponding Emax.
Give bare numbers, in %.

COMPOUND	Emax, %
CCOc1ccc(OCC2c3ccc(OC(C)C)cc3CCN2C(=O)c2ccc(F)c(Cl)c2)cc1 (centres undefined)	170
CCC(CC)Oc1ccc2c(c1)CCN(C(=O)c1cccc(Cl)c1)C2COc1ccc(OC)cc1 (centres undefined)	344
COc1ccc(OCC2c3ccc(OC(C)C)cc3CCN2C(=O)c2cccc(Cl)c2)cc1 (centres undefined)	202
COc1ccc(OCC2c3ccc(N4CCCCC4)cc3CCN2C(=O)c2cccc(Cl)c2)cc1 (centres undefined)	221
COc1ccc(OCC2c3ccc(OC(C)C)cc3CCN2C(=O)c2ccc(Cl)cc2)cc1 (centres undefined)	182

Hi, could you look up Emax for each item in my list?
1. COc1ccc(OCC2c3ccc(OC(C)C)cc3CCN2C(=S)c2cccc(Cl)c2)cc1 (centres undefined)
2. COc1ccc(OCC2c3ccc(N4CCOCC4)cc3CCN2C(=O)c2cccc(Cl)c2)cc1 (centres undefined)
3. CCOc1ccc(OC[C@@H]2c3ccc(OC(C)C)cc3CCN2C(=S)c2cccc(F)c2)cc1
4. CCOc1ccc(OCC2c3ccc(OC(C)C)cc3CCN2C(=S)c2cccc(C(F)(F)F)c2)cc1 (centres undefined)

1: 213; 2: 188; 3: 213; 4: 190

====

# TARGET_DESC: Glutamate NMDA receptor; Grin1/Grin2c (Rattus norvegicus) (UniProt P35439+Q00961)
# ASSAY_COMMENT: Positive allosteric modulation of recombinant rat GluN1/GluN2C receptor expressed in xenopus laevis oocyte assessed as potentiation of glutamate and glycine-induced current response at 30 uM at holding potential -40mV by two electrode voltage clamp method relative to control
READOUT: Activity (%)
Answers are plain numbers, in %.

The examples below pair each entry with its known result.
MOLECULE	TARGET_DESC	Activity (%)
CCOc1ccc(OCC2c3ccc(OC(C)C)cc3CCN2C(=O)c2ccccc2F)cc1 (centres undefined)	Glutamate NMDA receptor; Grin1/Grin2c (Rattus norvegicus) (UniProt P35439+Q00961)	68
CCOc1ccc(OCC2c3ccc(OC4CCCC4)cc3CCN2C(=O)c2cccc(F)c2)cc1 (centres undefined)	Glutamate NMDA receptor; Grin1/Grin2c (Rattus norvegicus) (UniProt P35439+Q00961)	169
COc1ccc(OCC2c3ccc(OC4CCCCC4)cc3CCN2C(=O)c2cccc(Cl)c2)cc1 (centres undefined)	Glutamate NMDA receptor; Grin1/Grin2c (Rattus norvegicus) (UniProt P35439+Q00961)	222
COc1ccc(OCC2c3ccc(OC(C)C)cc3CCN2C(=O)c2ccc(Cl)cc2)cc1 (centres undefined)	Glutamate NMDA receptor; Grin1/Grin2c (Rattus norvegicus) (UniProt P35439+Q00961)	251

Hi, could you look up Activity for each item in my list?
1. CCOc1ccc(OCC2c3ccc(OC(C)C)cc3CCN2C(=O)c2cccc(OC)c2)cc1 (centres undefined)
2. CC(C)Oc1ccc2c(c1)CCN(C(=O)c1cccc(Cl)c1)C2COc1ccc(OC(F)(F)F)cc1 (centres undefined)

1: 65; 2: 189

====

# TARGET_DESC: Glutamate NMDA receptor; Grin1/Grin2c (Rattus norvegicus) (UniProt P35439+Q00961)
# ASSAY_COMMENT: Positive allosteric modulation of recombinant rat GluN1/GluN2C receptor expressed in xenopus laevis oocyte assessed as potentiation of glutamate and glycine-induced current response at 30 uM at holding potential -40mV by two electrode voltage clamp method relative to control
Note to self: values exactly at 200% are Met. So Emax at or above 200% is Met, below is Not met.

Reported Emax at or above 200%? CCOc1ccc2c(c1)CCN(C(=O)c1cccc(Cl)c1)C2COc1ccc(OC)cc1 (centres undefined)
Met

Reported Emax at or above 200%? COc1ccc(OCC2c3ccc(OC(C)C)cc3CCN2C(=S)c2cccc(F)c2)cc1 (centres undefined)
Met

Reported Emax at or above 200%? CC(C)Oc1ccc(OCC2c3ccc(OC(C)C)cc3CCN2C(=O)c2cccc(C(F)(F)F)c2)cc1 (centres undefined)
Not met

Ref: ChEMBL document CHEMBL4011622
